src = PubChem BioAssay (NCI)

Test system: COLO 205 colon
assay.info: NCI tumour cell line growth inhibition, 48 h
This section presents molecules with their documented TGI values.
Give just the numeric value; µM need not be written.

structure.smiles.string	result
CCN(CC)CCS(=O)(=O)CCNc1ccnc2cc(Cl)ccc12	8.31
O=S(=O)(Cc1ccccc1)SCc1ccccc1	34.3

Next molecule, please.
Fill in the blank: the reported TGI of `CCOc1cc(/C=C/C(=O)CC(=O)/C=C/c2ccc(OC(=O)CNCCN(CC)CC)c(OCC)c2)ccc1OC(=O)CNCCN(CC)CC` is ____.
4.58

* * *

Test system: RXF 393 renal
assay.info: NCI tumour cell line growth inhibition, 48 h
recorded.metric: TGI (µM)
Quick note: give the figure in µM, leave out the unit.

Some molecules with known TGI results, for comparison:
molecule	recorded.metric	result
COC(=O)C1(Cc2ccccc2)Cc2c(C)ccc(C)c2C1=O (stereo unspecified)	TGI	83.1
Cc1nn2c(-c3nc4cc(Cl)c(Cl)cc4[nH]3)c(-c3ccc(F)cc3)nc2s1	TGI	5.41
Cn1c(=O)c(C(=O)NC23CC4CC(CC(C4)C2)C3)c(O)c2ccccc21	TGI	35.9

// returns reported TGI for input `CCN(CC)Cc1cc(Nc2cc(C(F)(F)F)c(C#N)c3nc4ccccc4n23)ccc1O`
5.81

Looking for the measured TGI of `COc1cc2c3c(n(CCCN4CCSCC4)c(=O)c2cc1OC)-c1cc2c(cc1C3=O)OCO2` , can you help?
67.8
